Test system: DMS 273 small cell lung
method.description: NCI tumour cell line growth inhibition, 48 h
measured.parameter: TGI

Worked examples follow.
compound="CC1(O)C(C)(O)C(C)(O)C1(C)O (stereo unspecified)" measured_parameter=TGI assay_result="> 100 µM"
compound="CCCCCCCC/C=C/CCCCCCCC(=O)N(O)C1CC(n2cc(C)c(=O)[nH]c2=O)OC1CO (stereo unspecified)" measured_parameter=TGI assay_result="16.1 µM"
compound=CN1CCN(Cc2nc3cccc4c3c([n+]2[O-])-c2ccccc2-4)CC1 measured_parameter=TGI assay_result="> 100 µM"
compound=COc1ccc(/C=C/C(=O)c2sc(Nc3ccc([N+](=O)[O-])cc3)nc2C)cc1 measured_parameter=TGI assay_result="> 100 µM"
compound="O=C1OC(Cl)C(N=P(c2ccccc2)(c2ccccc2)c2ccccc2)=C1Cl (stereo unspecified)" measured_parameter=TGI assay_result="> 100 µM"

Task: What value of measured TGI is listed for CN(C)CCNC(=O)C1COc2cc(-c3cc(=O)c4ccccc4o3)ccc2O1 (stereo unspecified) ?
Output: 36.3 µM

Task: Record: `CCOC(=O)c1ccc(O)cc1`
Output: > 100 µM

Task: Record: O=C(O)C(CO)N=Cc1nc(-c2ccccc2)oc1O (stereo unspecified)
Output: > 100 µM

Task: Record: `COC(=O)[C@@H]1c2[nH]c3ccccc3c2C[C@@H]2c3ccccc3NC(=O)[C@@H]21`
Output: > 100 µM

Task: Record: CC(=O)Nc1ccc(C(=O)NN2C(=O)C(Cl)C2c2cc(Br)cc(Br)c2O)cc1 (stereo unspecified)
Output: > 100 µM

Task: Record: CCOC(=O)C(C(=O)OCC)P(=S)(S)c1ccccc1 (stereo unspecified)
Output: > 100 µM

----------
Tested on: OVCAR-3 ovarian
method.description: NCI tumour cell line growth inhibition, 48 h; in the data active means GI50 below about 0.43 µM; inactive means the rest
Mark one answer only. Choices: y for active, n for inactive

compound=Cn1cc(-c2csc(-c3c[nH]c4ccccc34)n2)c2cccnc21 label=y
compound=CC(=O)/C(=C\c1c(-c2ccccc2)[nH]c2ccccc12)S(C)(=O)=O label=n
compound=O=c1[nH]nc(-c2nn(-c3ccc(Cl)cc3)cc2O)o1 label=n

Task: Called result for COc1ccc(C2NC(=O)c3cc4c(cc3N2)OCO4)cc1 (stereo unspecified)
Output: n

Task: Record: `O=C(Nc1ccccc1C(=O)N/N=C(\c1ccccc1)c1ccccn1)c1ccccc1`
Output: y

Task: Record: `C#CC#CC#CC#CC#CC#CC#CC#CC[C@@H]1OC[C@H](COC(=O)O[C@@H](C(=O)O[C@H]2C[C@@]3(O)[C@@H](OC(=O)c4ccccc4)[C@@H]4[C@]5(OC(C)=O)CO[C@@H]5C[C@H](O)[C@@]4(C)C(=O)[C@H](OC(C)=O)C(=C2C)C3(C)C)[C@@H](NC(=O)c2ccccc2)c2ccccc2)O1`
Output: n

----------
Tested on: A549 NSCLC
method.description: NCI tumour cell line growth inhibition, 48 h
measured.parameter: TGI

mol=COC(=O)Nc1nc2ccc(NS(=O)(=O)c3ccc(Cl)cc3)cc2[nH]1 measured_parameter=TGI assay_result="72.1 µM"
mol=C=C(C)[C@@H]1CC[C@]2(C(N)=O)CC[C@]3(C)[C@H](CC[C@@H]4[C@@]5(C)C/C(=C/c6cccnc6)C(=O)C(C)(C)[C@@H]5CC[C@]43C)[C@@H]12 measured_parameter=TGI assay_result="> 100 µM"
mol=CN(C)c1nc2n(CCO)ccnc-2c(=O)n1 measured_parameter=TGI assay_result="> 100 µM"

Turning now to a further compound:
Task: What value of measured TGI is listed for `CC(C)(C(=O)NCC(F)(F)C(F)(F)F)C(=O)N[C@@H]1C(=O)Nc2ccccc2-c2ccccc21` ?
Output: > 100 µM

----------
Tested on: SF-268 CNS
method.description: NCI tumour cell line growth inhibition, 48 h
measured.parameter: TGI

Worked examples follow.
molecule=O=C(NCCn1ccnn1)Nc1ccccc1 assay_result="> 100 µM"
molecule="COC(=O)[C@]1(C)CCC[C@]2(C)C3CC4OOC3(C=C4C(C)(C)O)CCC21 (stereo not given in full)" assay_result="> 100 µM"
molecule=CC(C)C(=O)NCC[C@@H](CNC(=O)OC(C)(C)C)NC(=O)OC(C)(C)C assay_result="> 100 µM"
molecule=CN(C)N=Nc1cn[nH]c1C(N)=O assay_result="> 100 µM"
molecule="COc1cc2c(cc1OCCCC(=O)Nc1cc(C(=O)Nc3cc(C(=O)Nc4cc(C(=O)NCCCN(C)C)n(C)n4)n(C)c3)n(C)c1)N=CC1CCCN1C2=O (stereo not given)" assay_result="63.1 µM"
molecule="Cc1ccc(S(=O)(=O)NC2CCCCO2)cc1 (stereo not given)" assay_result="> 100 µM"
molecule=CCCCc1ccc(Nc2nc3c(ncn3COCCBr)c(=O)[nH]2)cc1 assay_result="> 100 µM"
molecule=O=C1c2ccccc2C(=O)c2nc3c(O)cccc3cc21 assay_result="> 100 µM"

Task: SF-268 CNS / TGI / `CCCCCCCCn1ccc2cc(NC(=O)Cn3cc(CN4CCN(CC)CC4)nn3)ccc21` : value?
Output: 4.01 µM

Task: Record: `COc1ccc(CCc2nc3cc(-c4c(C)noc4C)ccc3n2CCN2CCOCC2)cc1`
Output: > 100 µM

----------
System: K-562 leukemia
method.description: NCI tumour cell line growth inhibition, 48 h; in the data active = GI50 below about 0.43 µM; inactive = the rest
Mark one answer only. Choices: active, inactive

Some solved cases for reference:
compound=O=C(NNC(=O)c1ccccc1S)c1ccccc1S label=inactive
compound=O=S(=O)(Nc1cc(F)cc(F)c1)c1ccc(-c2cnc(C3CC3)o2)cc1 label=inactive
compound="CCCCCCC(O)(c1ccc(F)cc1)C(CN1CCOCC1)c1ccccc1 (stereo not given)" label=inactive
compound=NS(=O)(=O)c1ccc(N=Nc2c(O)[nH]c3ccc(Cl)cc23)cc1 label=inactive
compound=C#CCNCCCN1C(=O)c2ccc3c4c(ccc(c24)C1=O)C(=O)N(CCCNCC#C)C3=O label=active
compound=CC(C)(C(=O)NCC(F)(F)C(F)(F)F)C(=O)N[C@@H]1C(=O)Nc2ccccc2-c2ccccc21 label=inactive

Task: Called result for `COc1cc(-c2cc(-c3nc4ccc(F)cc4[nH]3)[nH]n2)cc(OC)c1OC`
Output: inactive

Task: Record: COC(=O)C(C)NP(=O)(OCc1ccc(Cn2cnc3c(N)ncnc32)cc1)Oc1ccccc1 (stereo not given)
Output: inactive

Task: Record: `CCCCCC[n+]1noc(N)c1-c1ccc(-c2c(N)on[n+]2CCCCCC)cc1`
Output: inactive

Task: Record: `O=C(Nc1ccccc1C(=O)N/N=C(\c1ccccc1)c1ccccn1)c1ccccc1`
Output: inactive

----------
System: MDA-N
method.description: NCI tumour cell line growth inhibition, 48 h
Assign Y whenever TGI does not fall below 6 µM; assign N whenever it does.

Some solved cases for reference:
compound=CC(C)NCCCNc1c2ccccc2nc2cccc([N+](=O)[O-])c12 label=N
compound=CN(C)CCNS(=O)(=O)N(C)C label=Y
compound=O=C1/C(=C/c2ccc(Cl)cc2)N=C(c2ccccc2)N1c1nc2ccc(Sc3ccccc3)cc2[nH]1 label=Y
compound=O=C1c2ccccc2CC12CCC1(CC2)OCCO1 label=Y
compound=CN(C)CCNc1ccc2nnn3c4ccc(O)cc4c(=O)c1c23 label=Y
compound=Cc1ccc(I)cc1N=C=S label=Y
compound="CCCCCCCCCCCCCCCC(=O)Nc1ccn(C2CC(OP(=O)(O)OCC3OC(n4cc(F)c(=O)[nH]c4=O)CC3OC(C)=O)C(CO)O2)c(=O)n1 (centres undefined)" label=Y
compound="CCOC(=O)CC1C(O)C(=O)N(C)C1c1ccccc1 (centres undefined)" label=Y
compound=CO/C(=N\N=C\c1ccccc1F)c1ccncc1 label=Y
compound="CC1C2CC(CC23OCC(CCl)O3)C1(C)C (centres undefined)" label=Y

Task: Hi team, for CCOc1ccc(C2Oc3c(cccc3OC)C=C2[N+](=O)[O-])cc1OCC (centres undefined) , is the recorded TGI at or above 6 µM?
Output: N

Task: Record: COC(=O)C1(CCC(=O)N(C)c2ccccc2)NNC2C(=O)N(c3ccccc3)C(=O)C21 (centres undefined)
Output: Y

Task: Record: CCC(C)C1NC(=O)C(NC(=O)C(CC(C)C)N(C)C(=O)[C@@H]2C=CCN2C(=O)[C@H](C)O)C(C)OC(=O)[C@H](Cc2ccc(OC)cc2)N(C)C(=O)[C@@H]2CCCN2C(=O)[C@H](CC(C)C)NC(=O)C(C)C(=O)[C@H](C(C)C)OC(=O)CC1O (some centres undefined)
Output: N

Task: Record: `C=C1CC[C@]2(C)[C@H](CC[C@@]34C[C@@H](CC[C@H]32)[C@@H](C(=O)O)C4)C1(C)C`
Output: Y

----------
Test system: ACHN renal
method.description: NCI tumour cell line growth inhibition, 48 h
measured.parameter: TGI

compound="O=C1NC(N/N=C\\C(O)C(O)C(O)C(O)CO)=N/C1=C\\c1ccc(Cl)cc1 (stereo unspecified)" assay_result="> 59.1 µM"
compound="Nc1nc2c3c(ncn3CC(O)CO2)n1 (stereo unspecified)" assay_result="> 100 µM"
compound=CC1(C)OCC[C@@H]1[Si](C)(C)C assay_result="> 100 µM"
compound=Cc1c(C)n(COCCO)c2ncnc(N)c12 assay_result="> 100 µM"

Turning now to a further compound:
Task: What value of measured TGI is listed for COC(=O)C1(CCC(=O)N(C)c2ccccc2)NNC2C(=O)N(c3ccccc3)C(=O)C21 (stereo unspecified) ?
Output: > 10 µM
